tested on: KM mice; assay: Acute toxicity in mice (i.p.); format: in vivo; conditions: both, KM, mouse, in vivo, ip, 14 days
Measured Attribute: Acute toxicity LD50 (mg/kg)
Give the quantity in mg/kg, number only.

Recorded results for 3 molecules are shown here.
Structure Smiles	Target System	Measured Attribute	Numeric Readout
COc1ccc2c3ccnc(C)c3n(CCCCCn3c4ccccc4c4ccnc(C)c43)c2c1	KM mice	Acute toxicity LD50	35
Cc1nccc2c3ccccc3n(CCCCCn3c4ccccc4c4ccnc(-c5cccnc5)c43)c12	KM mice	Acute toxicity LD50	175
COc1ccc2c3ccnc(C)c3n(CCCCn3c4ccccc4c4ccnc(-c5cccs5)c43)c2c1	KM mice	Acute toxicity LD50	50

Bench note: what Acute toxicity LD50 did `Cc1nccc2c3ccccc3n(CCCCn3c4ccccc4c4ccnc(-c5cccnc5)c43)c12` show?
150

* * *

system: LLC; test: MTT cytotoxicity, Lewis lung carcinoma cells; format: cell-based; details: MTT assay, mean ± SD of at least three determinations
IC50 by entry:
Quick reminder: number only, in µM, skip the unit.

Recorded IC50, per entry:
Compound	Units	Numeric Readout
N.N.[Cl][Pt][Cl] [Cisplatin, reference compound]	µM	7.6
Cc1nccc2c3ccccc3n(CCCCCCn3c4ccccc4c4ccnc(-c5cccnc5)c43)c12	µM	14.5

Attention now turns to another entry.
What value of IC50 on LLC does `Cc1nccc2c3ccccc3n(CCCCCn3c4ccccc4c4ccnc(-c5ccccc5Cl)c43)c12` have?
16.6

* * *

system: MCF-7; assay: MTT cytotoxicity, breast carcinoma cells; assay type: cell-based; conditions: MTT assay, breast carcinoma MCF-7, mean ± SD of at least three determinations; read-out: IC50 (μM) ±SD MCF7
Measured Attribute: IC50 (µM)
Field format: number, assumed µM, no unit text.

Entry N.N.[Cl][Pt][Cl] [Cisplatin, reference compound] has what IC50?
12.4

* * *

melting point by entry:

Structure Smiles	melting point
COc1ccc2c3ccnc(C)c3n(CCCCn3c4ccccc4c4ccnc(C)c43)c2c1	188.7 to 189.4 °C
COc1ccc(-c2nccc3c4ccccc4n(CCCCn4c5ccccc5c5ccnc(-c6cccnc6)c54)c23)cc1OC	239.8 to 240.5 °C
COc1cc(-c2nccc3c4ccccc4n(CCCCn4c5ccccc5c5ccnc(-c6cccs6)c54)c23)cc(OC)c1OC	226.5 to 227.8 °C
Clc1ccccc1-c1nccc2c3ccccc3n(CCCCn3c4ccccc4c4ccnc(-c5cccs5)c43)c12	225.4 to 227.2 °C

Requested field: melting point. Item: `Cc1nccc2c3ccccc3n(CCCCCn3c4ccccc4c4ccnc(-c5ccccc5Cl)c43)c12`
169.1 to 171.2 °C

And `COc1ccc2c3ccnc(C)c3n(CCCCCn3c4ccccc4c4ccnc(-c5cccs5)c43)c2c1` ?
196.1 to 197.4 °C

Now the molecule `Cc1nccc2c3ccccc3n(CCCCCCn3c4ccccc4c4ccnc(-c5cccs5)c43)c12`
238.5 to 239.6 °C

* * *

Overview of reported melting point across a group of compounds:

Structure Smiles	Measured Attribute	Result
Cc1nccc2c3ccccc3n(CCCCn3c4ccccc4c4ccnc(-c5ccccc5Cl)c43)c12	melting point	232 to 232.8 °C
Clc1ccccc1-c1nccc2c3ccccc3n(CCCCn3c4ccccc4c4ccnc(-c5cccnc5)c43)c12	melting point	177.6 to 178.9 °C
c1csc(-c2nccc3c4ccccc4n(CCCCn4c5ccccc5c5ccncc54)c23)c1	melting point	141.6 to 143.1 °C

Reported melting point for `COc1ccc2c3ccnc(C)c3n(CCCCn3c4ccccc4c4ccnc(-c5cccnc5)c43)c2c1` : what is it?
163.8 to 164.5 °C

What would you report for `COc1cc(-c2nccc3c4ccccc4n(CCCCn4c5ccccc5c5ccnc(-c6cccnc6)c54)c23)cc(OC)c1OC` ?
231 to 232.3 °C

Another compound: `COc1ccc(-c2nccc3c4ccccc4n(CCCCn4c5ccccc5c5ccnc(-c6cccnc6)c54)c23)cc1`
241.2 to 242.4 °C

Same again, this time with `COc1ccc(-c2nccc3c4ccccc4n(CCCCn4c5ccccc5c5ccnc(-c6cccs6)c54)c23)cc1OC`
217.2 to 218.4 °C
